tested on: HCC 2998; experiment: NCI tumour cell line growth inhibition, 48 h
Activity calls are given as the source filed them. No stated cut-off is given here; in the data, active = GI50 up to about 1.1 µM and inactive = higher.
Thanks in advance; please answer with one of these: active, inactive

Below, 10 compounds whose answers are already recorded.
Cn1ccnc1CCc1ccc(Cl)cc1Cl = inactive
O=CC(O)C(O)C(O)C(O)C(=O)NCCCCCCCCCCCCNC(=O)C(O)C(O)C(O)C(O)C=O (stereo unspecified) = inactive
CCOC(=O)C1CC(=O)C=C2CCCCC21 (stereo unspecified) = inactive
CCN1CCC(O)(C(C(=O)O)c2ccccc2)CC1 (stereo unspecified) = inactive
CCOC(=O)c1nc2c(Cl)c3ncccc3cc2[nH]c1=O = inactive
COCCCNc1nc(N)c(C#N)c(C#N)c1C#N = inactive
S=c1[nH]c2c(Cl)c(Cl)c(Cl)c(Cl)c2[nH]1 = active
O/N=N/c1ccc(-c2ccccc2)cn1 = inactive
CC1CC(=O)Nc2ccc(/N=N/N(C)C)cc2N1C=O (stereo unspecified) = inactive
CC(C)N(C(=O)C12C3C4C5C3C1(C(=O)N(C(C)C)C(C)C)C5C42)C(C)C (stereo unspecified) = inactive

Lookup: Any idea what this test logged for C/N=C(\N=c1/ss/c(=N\C)n1C)N(C)C.[O-][Cl+3]([O-])([O-])O ?
Found: inactive

Lookup: Lab log entry: COc1ccc(OC2OC(CO)C(O)C(O)C2O)cc1 (stereo unspecified) — outcome as called in the assay?
Found: inactive

Lookup: Please share the test call associated with C=CCc1c(O)c2c(c3oc(=O)cc(C)c13)CC(C)O2 (stereo unspecified) .
Found: inactive

Lookup: In this assay, the call recorded for O=C1NC(Cc2ccc(O)cc2)C(=O)N2CCCC12 (stereo unspecified) was what?
Found: inactive

Lookup: Which outcome was assigned to COc1ccc(/C=C2\CCC(Cc3ccccc3)(CN(C)C)C2=O)cc1 (stereo unspecified) in this test?
Found: inactive

Lookup: Tell me the recorded outcome of this test for Oc1ccc2ccccc2c1/N=N/c1ccccc1 .
Found: inactive

Lookup: Test call, this compound: O=C1CCCC/C1=C(\Br)I
Found: inactive

Lookup: Please share the test call associated with N/N=C1\C(=O)N(C2CCCCC2)C(=O)C1C(=O)NC1CCCCC1 (stereo unspecified) .
Found: inactive

Lookup: I'd appreciate the recorded outcome for O=C(O)CCC(C(=O)O)N1C(=O)c2ccccc2C1=O (stereo unspecified) from this test.
Found: inactive

Lookup: Dear colleague, could you share the recorded outcome for CC(C)=CCC/C(C)=C\CC/C(C)=C/CO when you have a moment?
Found: inactive

Lookup: In this assay, the call recorded for C=CCOC(=O)C1=C(C)N=C2N[C@H](CCCCCCCCC)C[C@@H]3CCC1N23 (stereo partly specified) was what?
Found: inactive

Lookup: Could you kindly confirm the outcome this assay logged for Nc1ncnc2c1ncn2C1CC(O)C(CO)O1 (stereo unspecified) ?
Found: inactive

Lookup: Dear all, I need the recorded test outcome for CSc1nc(Cl)c(Br)c(Sc2nc(N)nc3nc[nH]c23)n1 , thank you.
Found: inactive

Lookup: Please state the recorded outcome for this compound: CCCC[C@H]1CCN2C[C@@H](O)[C@@H](O)[C@H]2[C@@H]1O
Found: inactive

====

tested on: ACHN; assay: NCI tumour cell line growth inhibition, 48 h
The source made the active and inactive calls. No stated cut-off is given here; in the data, active = GI50 up to about 1.1 µM and inactive = higher.
Parameter measured: GI50

CCC(C)N1CN(c2ccccc2)C2(CCN(CCCC3(c4ccc(F)cc4)OCCO3)CC2)C1=O (configuration not stated) = 6.61 µM (inactive)

GI50 in this record for O=S(=O)(O)c1cc(O)c(/N=N/c2ccc(O)cc2O)c2ccccc12 : > 100 µM (inactive)

GI50 reported for this compound COc1ccc2nc(-c3ccc(O)cc3)ccc2c1 : > 100 µM (inactive)

// sample Cc1ccc(S(=O)(=O)NC2C(=O)c3ccccc3C(=O)C2n2ccnc2)cc1 (configuration not stated) , its GI50 was > 100 µM (inactive)

The recorded GI50 for entry Cc1nc2ccccc2c(=O)n1NC(=O)c1ccccc1O equals > 100 µM (inactive)

The compound N=C/N=C/C(=S)O[C@@H]1C(=O)N2CCC[C@@]23CCCC[C@@H]13 showed GI50 equal to > 12.5 µM (inactive)

Record summary for C[C@@H](c1ccccc1)N1CN(C(=O)OCc2ccccc2)C(CO)C1=O (some centres not stated) : reported GI50 = > 100 µM (inactive)

What the record says about CCOC(=O)C1(C/C=C(/C)Cl)CCCC1=O (configuration not stated) : GI50 is > 100 µM (inactive)

response.value for CCCCCCCCCCCCCCCCCCN(C)C(COC)COP(=O)([O-])OCC[N+](C)(C)C (configuration not stated) (field: GI50) = 11.9 µM (inactive)

The compound identified as O=[N+]([O-])c1cccc(-c2ccc([C@H]3CC(c4ccc(Cl)cc4)=NN3)o2)c1 registered its GI50 at 17.7 µM (inactive)

Form field GI50, entry S=c1scc(-c2ccc(Cl)cc2)n1OC1CCCC1 : 25.5 µM (inactive)

Given item C/C(=N\N=C(\N)OB(F)F)c1ccccn1 , the value recorded as its GI50 is 81.1 µM (inactive)
